Recorded EC50 for the following binders
Experimental System: full-length H1 A/California/07/2009 HA expressed on 293T cells (influenza A virus A/California/07/2009 (H1N1))
Assay Comment: flow cytometry, HA-expressing 293T
Report only the number, with the unit µg/mL understood.

# Binder, EC50, µg/mL
records = [
    ("S48 (antibody, V domains shown) VH: EVQLVESGGGLVQPGGSLRLSCAVSGFTIGDGSIHWVRQAPGKGLEWVASIGPYGGSTYYADSVKGRFTISADTSKNTAYLQMNSLRAEDTAVYYCARFHYGYWNNMDYWGQGTLVTVSS VL: DIQMTQSPSSLSASVGDRVTITCRASQDVGWWVAWYQQKPGKAPKLLIYGTRWLYSGVPSRFSGSGSGTDFTLTISSVQPEDFATYYCQQYYSGPITFGQGTKVEIKR", 4.86),
    ("P14 (antibody, V domains shown) VH: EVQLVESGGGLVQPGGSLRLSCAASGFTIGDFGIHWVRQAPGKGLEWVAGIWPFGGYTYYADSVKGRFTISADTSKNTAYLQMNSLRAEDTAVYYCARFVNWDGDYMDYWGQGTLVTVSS VL: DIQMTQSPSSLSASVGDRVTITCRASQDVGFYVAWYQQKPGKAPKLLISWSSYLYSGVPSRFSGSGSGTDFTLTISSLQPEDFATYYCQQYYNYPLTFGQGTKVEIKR", 0.125),
    ("P48 (antibody, V domains shown) VH: EVQLVESGGGLVQPGGSLRLSCAASGFTINSWGIHWVRQAPGKGLEWVAGIGPSWGYTSYADSVKGRFTISADTSKNTAYLQMNSLRAEDTAVYYCARFGDGDFDLMDYWGQGTLVTVSS VL: DIQMTQSPSSLSASVGDRVTITCRASQDVWSYVAWYQQKPGKAPKLLISYTSYLYSGVPSRFSGSGSGTDFTLTISSLQPEDFATYYCQQYFNWPITFGQGTKVEIKR", 2.4),
]

Now for the binder whose EC50 we want.
Quick check: EC50 of P47 (antibody, V domains shown) VH: EVQLVESGGGLVQPGGSLRLSCAASGFTIGNSGIHWVRQAPGKGLEWVASIWPSGGSTYYADSVKGRFTISADTSKNTAYLQMNSLRAEDTAVYYCARFGHIDGDIMDYWGQGTLVTVSS VL: DIQMTQSPSSLSASVGDRVTITCRASQDVYYYVAWYQQKPGKAPKLLISGSSYLYSGVPSRFSGSGSGTDFTLTISSLQPEDFATYYCQQYYNWPLTFGQGTKVEIKR ?
0.61
